value.kind: melting point (°C)

[A] Cc1occ(C(F)(F)F)c1C(=O)O
[B] O=C(C(=O)c1ccc(Cl)cc1Cl)c1ccncc1
Between these two entries, A and B , state which has the higher melting point. Identify your selection by its label.
A
(A: 140 °C, B: 85 °C)

----------
Property: melting point; scope: individual compounds

Previously resolved entries follow.
# compound, melting point
rows = [
    ("Cc1cccc(C)c1C(=O)Nc1ccc(OCCN2CCOCC2)cc1", "177 to 190 °C"),
    ("CCCCCCCN(CCN1CCN(CCSc2nc3ncccc3o2)CC1)C(=O)Nc1c(C(C)C)cc(O)cc1C(C)C", "100 to 102 °C"),
]

Give a short answer stating reported melting point for COCNC(=O)SC(C(=O)O)c1ccccc1 (configuration not stated) .
111 to 112 °C

Give a short answer stating reported melting point for `CN(C)C=NS(=O)(=O)CCC(C)(C)CCI` .
105 to 106 °C

Give a short answer stating reported melting point for `C/C=C/C(=O)NCCn1c(CCCC)nc2c(N)nc3cccnc3c21` .
198 to 200 °C

Give a short answer stating reported melting point for `O=C1C(=C(O)Cc2ccccc2)SC(=S)N1c1ccc(Cl)cc1` .
134 to 137 °C

Give a short answer stating reported melting point for N#Cc1ccc(C2CCCC(=O)N2c2ccccc2)cc1 (configuration not stated) .
120 °C

Give a short answer stating reported melting point for `CCCCCCCCCCCCCCOc1ccc(CN(C(C)=O)c2ccc(CBr)cc2)cc1` .
46 to 49 °C

Give a short answer stating reported melting point for `Fc1ccccc1NC1(c2nnn[nH]2)CCN(Cc2ccccc2)CC1` .
195 to 198 °C

Give a short answer stating reported melting point for CC(C)C(=O)NC(c1ccc(C=NO)cc1)C(F)(F)F (configuration not stated) .
169 to 171 °C

Give a short answer stating reported melting point for `COc1ccc(Oc2cc3ccc(Cl)cc3cn2)cc1` .
77 °C

Give a short answer stating reported melting point for `Cc1ccc2c(n1)N(CCCN(C)C)c1ccccc1N(C)C2=O` .
130 to 131 °C
